# procedure.details: self-splicing fitness, log relative to wild type (ln ratio); higher = more splicing; Tetrahymena group I intron in knt gene, E. coli kanamycin selection, DiMSum; sequences stand for … in CUCUCU…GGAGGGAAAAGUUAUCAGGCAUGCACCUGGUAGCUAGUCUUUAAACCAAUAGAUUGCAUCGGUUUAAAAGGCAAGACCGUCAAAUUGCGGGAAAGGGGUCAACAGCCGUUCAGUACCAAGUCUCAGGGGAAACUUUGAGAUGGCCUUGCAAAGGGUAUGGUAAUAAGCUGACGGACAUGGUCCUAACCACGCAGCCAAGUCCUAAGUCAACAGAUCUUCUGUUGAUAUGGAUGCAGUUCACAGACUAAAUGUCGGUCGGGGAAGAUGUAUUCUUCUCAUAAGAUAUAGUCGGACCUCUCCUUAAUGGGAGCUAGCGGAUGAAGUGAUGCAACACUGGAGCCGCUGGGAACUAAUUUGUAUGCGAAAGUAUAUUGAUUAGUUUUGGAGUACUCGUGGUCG;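 also: selection with 25 µg/mL kanamycin versus none on LB agar overnight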
# condition.context: 37 °C
measured.property: self-splicing fitness (ln)

> print(dat)
        sequence.record           measured.property  numeric.result
1  UAAGAGCAAUAUUACGCAAU  self-splicing fitness (ln)           -2.32
2  AUCCAGCAAUAUUACGUUCA  self-splicing fitness (ln)          -0.265
3  CGACAGCAAUAUUACGCGCG  self-splicing fitness (ln)            -1.8
4  GUACAGCAAUAUUACGCUUC  self-splicing fitness (ln)           -2.69
5  CUACAGCAAUAUUACGGGGA  self-splicing fitness (ln)           -1.79
6  UGAGAGCAAUAUUACGAUGC  self-splicing fitness (ln)          -0.477
7  UGACAGCAAUAUUACGAUGA  self-splicing fitness (ln)          -0.119
8  GCGUAGCAAUAUUACGGUUC  self-splicing fitness (ln)          -0.643
